Reference source for all entries: ChEMBL document CHEMBL1130393

In this section, each of the compounds is paired with its reported GI50.
- Tested on: CAKI-1
- Test method notes: In vitro antitumor activity against CAKI-1 tumor cell lines
- Type: functional
- Test context: Homo sapiens
Just the number in nM, nothing appended.

Structure as smiles	Readout value
Cc1ccc2c(O)cc(-c3cccc4ccccc34)nc2n1	6030

Record summary for Cc1cc(C)c2c(O)cc(-c3cccc(Cl)c3)nc2n1 : reported GI50 = 204

Record summary for Cc1cccc(-c2cc(O)c3c(C)cc(C)nc3n2)c1 : reported GI50 = 56200

Record summary for Cc1cnc2[nH]c(-c3cccc(Cl)c3)cc(=O)c2c1 : reported GI50 = 42.7

====

- Test system: HCT-116
- Test method notes: In vitro antitumor activity against HCT116 tumor cell lines
- Format: functional
- Test context: Homo sapiens
In this section, each of the compounds is paired with its reported GI50.

As a guide, the following entries are already answered.
Structure as smiles	GI50
Cc1cnc2nc(-c3ccc4ccccc4c3)cc(O)c2c1	468 nM
Cc1ccnc2nc(-c3ccc4ccccc4c3)cc(O)c12	427 nM
Cc1ccc2c(O)cc(-c3ccc4ccccc4c3)nc2n1	3980 nM
Oc1cc(-c2ccc3ccccc3c2)nc2ncccc12	3800 nM
Cc1cnc2[nH]c(-c3cccc(Cl)c3)cc(=O)c2c1	30.2 nM

Record summary for Cc1ccc2c(=O)cc(-c3cccc(F)c3)[nH]c2n1 : reported GI50 = 28.2 nM

Record summary for Cc1cnc2[nH]c(-c3cccc(F)c3)cc(=O)c2c1 : reported GI50 = 24 nM

Record summary for Cc1cccc(-c2cc(O)c3ccc(C)nc3n2)c1 : reported GI50 = 120 nM

Record summary for Oc1cc(-c2ccc3ccccc3c2)nc2ncc(Cl)cc12 : reported GI50 = 3980 nM

Record summary for Cc1ccnc2nc(-c3cccc4ccccc34)cc(O)c12 : reported GI50 = < 10 nM

Record summary for Cc1cc(C)c2c(O)cc(-c3ccc4ccccc4c3)nc2n1 : reported GI50 = 12600 nM

Record summary for Cc1ccnc2nc(-c3cccc(Cl)c3)cc(O)c12 : reported GI50 = 15.8 nM

Record summary for Cc1cnc2nc(-c3cccc4ccccc34)cc(O)c2c1 : reported GI50 = < 10 nM

Record summary for Cc1cc(C)c2c(O)cc(-c3cccc(Cl)c3)nc2n1 : reported GI50 = 170 nM

Record summary for Oc1cc(-c2cccc3ccccc23)nc2ncccc12 : reported GI50 = < 10 nM

Record summary for Cc1cc(C)c2c(O)cc(-c3cccc(F)c3)nc2n1 : reported GI50 = < 10 nM

Record summary for Cc1ccc2c(O)cc(-c3cccc(Cl)c3)nc2n1 : reported GI50 = 25.7 nM

Record summary for Cc1cccc(-c2cc(O)c3c(C)cc(C)nc3n2)c1 : reported GI50 = 17800 nM

Record summary for Cc1ccc2c(O)cc(-c3cccc4ccccc34)nc2n1 : reported GI50 = < 10 nM

Record summary for Cc1cccc(-c2cc(O)c3cc(C)cnc3n2)c1 : reported GI50 = 407 nM

Record summary for Cc1cccc(-c2cc(O)c3c(C)ccnc3n2)c1 : reported GI50 = 46.8 nM

Record summary for Cc1cc(C)c2c(O)cc(-c3cccc4ccccc34)nc2n1 : reported GI50 = 380 nM

====

- Test target: Tubulin (Bos taurus, UniProt Q6B856+Q862L2+Q862F3)
- Test method notes: Inhibition of tubulin polymerization
- Type: functional
Definition: the class of an entry is the range in band 1 = under 0.8 µM, band 2 = from 0.8 µM up to 2 µM, band 3 = 2 µM and over that contains its IC50.

Structure as smiles	Category label
Cc1ccnc2nc(-c3cccc4ccccc34)cc(O)c12	band 2
Oc1cc(-c2ccc3ccccc3c2)nc2ncc(Cl)cc12	band 3
Cc1cccc(-c2cc(O)c3cccnc3n2)c1	band 3
Cc1ccc2c(O)cc(-c3ccc4ccccc4c3)nc2n1	band 3
Cc1cnc2[nH]c(-c3cccc(Cl)c3)cc(=O)c2c1	band 1
Cc1cccc(-c2cc(O)c3c(C)ccnc3n2)c1	band 2
Cc1cc(C)c2c(O)cc(-c3ccc4ccccc4c3)nc2n1	band 3
Cc1cnc2[nH]c(-c3cccc(F)c3)cc(=O)c2c1	band 1

Category lookup for the compound Cc1cnc2nc(-c3cccc4ccccc34)cc(O)c2c1
band 1

Category lookup for the compound Cc1ccnc2nc(-c3ccc4ccccc4c3)cc(O)c12
band 2

Category lookup for the compound Cc1ccc2c(O)cc(-c3cccc(Cl)c3)nc2n1
band 2
